species: Rattus norvegicus; test: DrugMatrix - Regimen: Daily Repeat; format: toxicity, organism-based, Sprague-Dawley; set-up: regimen Daily Repeat, gender Male, age 6-8 weeks; conditions: in vivo, ip, 0.5 mg/kg, […], tissue Blood, route intraperitoneal, dose level High, time 28 day, vehicle 100 % SALINE
Quantity Measured: ABSOLUTE MONOCYTE (cells/µL)
Hi! Could you send only the number? It should be in cells/µL, unit omitted.

For the sequence shown here, TRANSPLATIN , give the reported ABSOLUTE MONOCYTE.
190

* * *

This section presents compounds with their documented ALBUMIN values.
organism: Rattus norvegicus; assay: DrugMatrix - Regimen: Daily Repeat; format: toxicity, organism-based, Sprague-Dawley; parameters: regimen Daily Repeat, gender Male, age 6-8 weeks; conditions: in vivo, po, 0 mg/kg, 72 h, tissue Plasma, route oral GAVAGE, dose level Control, time 3 day, vehicle 100 % WATER
Hi! Could you send only the number? It should be in G/DL, unit omitted.

Compound: CCN(C(C)=O)c1cccc(-c2ccnc3c(C#N)cnn23)c1 [ZALEPLON]
Quantity Measured: ALBUMIN
Endpoint Result: 4.25
--
Compound: CCN(CC)CCNC(=O)c1ccc(N)cc1 [PROCAINAMIDE]
Quantity Measured: ALBUMIN
Endpoint Result: 3.95
--
Compound: O=c1[nH]c(=O)n(C2CCCO2)cc1F (centres undefined) [TEGAFUR]
Quantity Measured: ALBUMIN
Endpoint Result: 4.18
--
Compound: CCCC(C)C1(CC)C(=O)NC(=O)NC1=O (centres undefined) [PENTOBARBITAL]
Quantity Measured: ALBUMIN
Endpoint Result: 4.07
--
Compound: CN(C)C(=O)Oc1cccc([N+](C)(C)C)c1.[Br-] [NEOSTIGMINE BROMIDE]
Quantity Measured: ALBUMIN
Endpoint Result: 4.07
--
Compound: CN(C)CCC=C1c2ccccc2CCc2ccccc21 [AMITRIPTYLINE]
Quantity Measured: ALBUMIN
Endpoint Result: 4.25
--
Compound: NC(=O)c1cccnc1 [NIACINAMIDE]
Quantity Measured: ALBUMIN
Endpoint Result: 4.17
--
Compound: NC12CC3CC(CC(C3)C1)C2 [AMANTADINE]
Quantity Measured: ALBUMIN
Endpoint Result: 4.25

For the compound shown here, CCN(CC)CCOC(=O)C1(C2CCCCC2)CCCCC1 [DICYCLOMINE] , give the reported ALBUMIN.
3.75

* * *

species on record: Rattus norvegicus; assay: DrugMatrix - Regimen: Daily Repeat; assay type: toxicity, organism-based, Sprague-Dawley; parameters: regimen Daily Repeat, gender Male, age 6-8 weeks; conditions: in vivo, ip, 0.5 mg/kg, […], tissue Blood, route intraperitoneal, dose level High, time 28 day, vehicle 100 % SALINE
Quantity Measured: ABSOLUTE EOSINOPHIL (cells/µL)
Hi! Could you send only the number? It should be in cells/µL, unit omitted.

For the sequence shown here, TRANSPLATIN , give the reported ABSOLUTE EOSINOPHIL.
130

* * *

organism: Rattus norvegicus; test: DrugMatrix - Regimen: Daily Repeat; assay type: toxicity, organism-based, Sprague-Dawley; parameters: regimen Daily Repeat, gender Male, age 6-8 weeks; conditions: in vivo, po, 0 mg/kg, 120 h, tissue Plasma, route oral GAVAGE, dose level Control, time 5 day, vehicle .5 % CMC
Quantity Measured: LIPASE
State the value, then name its unit.

For the compound shown here, C[C@]12CC[C@@H]3c4ccc(O)cc4CC[C@H]3[C@@H]1C[C@@H](O)[C@@H]2O [ESTRIOL] , give the reported LIPASE.
9 u/L

* * *

This section presents compounds with their documented POTASSIUM values.
species: Rattus norvegicus; assay: DrugMatrix - Regimen: Daily Repeat; format: toxicity, organism-based, Sprague-Dawley; set-up: regimen Daily Repeat, gender Male, age 6-8 weeks; conditions: in vivo, po, 0 mg/kg, 120 h, tissue Plasma, route oral GAVAGE, dose level Control, time 5 day, vehicle .5 % CMC
Hi! Could you send only the number? It should be in MEQ/L, unit omitted.

Check out these entries, answers already filled in.
Compound: C[C@H]1[C@H](NC(=O)/C(=N\OC(C)(C)C(=O)O)c2csc(N)n2)C(=O)N1S(=O)(=O)O [AZTREONAM]
Quantity Measured: POTASSIUM
Readout Units: MEQ/L
Endpoint Result: 6.82

Compound: CCCNC(=O)NS(=O)(=O)c1ccc(Cl)cc1 [CHLORPROPAMIDE]
Quantity Measured: POTASSIUM
Readout Units: MEQ/L
Endpoint Result: 6.68

Compound: C[C@]12CC[C@@H]3c4ccc(O)cc4CC[C@H]3[C@@H]1C[C@@H](O)[C@@H]2O [ESTRIOL]
Quantity Measured: POTASSIUM
Readout Units: MEQ/L
Endpoint Result: 6.57

For the compound shown here, COc1cc(OC)c(C(=O)CCCN2CCCC2)c(OC)c1 [BUFLOMEDIL] , give the reported POTASSIUM.
7.03

For the compound shown here, C[C@@H]1O[C@@H](O[C@H]2C[C@@H](O)[C@]3(CO)[C@H]4[C@H](O)C[C@]5(C)[C@@H](C6=CC(=O)OC6)CC[C@]5(O)[C@@H]4CC[C@]3(O)C2)[C@H](O)[C@H](O)[C@H]1O [OUABAIN] , give the reported POTASSIUM.
6.14

For the compound shown here, CCCCC1=NC2(CCCC2)C(=O)N1Cc1ccc(-c2ccccc2-c2nnn[nH]2)cc1 [IRBESARTAN] , give the reported POTASSIUM.
5.55

For the compound shown here, COc1ccccc1[N+](=O)[O-] [2-NITROANISOLE] , give the reported POTASSIUM.
6.45

For the compound shown here, NC(=O)N1c2ccccc2CC(=O)c2ccccc21 [OXCARBAZEPINE] , give the reported POTASSIUM.
7.08

* * *

This section presents molecules with their documented ABSOLUTE SEGMENTED NEUTROPHIL values.
species on record: Rattus norvegicus; test: DrugMatrix - Regimen: Daily Repeat; format: toxicity, organism-based, Sprague-Dawley; design: regimen Daily Repeat, gender Male, age 6-8 weeks; conditions: in vivo, iv, 0 mg/kg, 120 h, tissue Blood, dose level Control, time 5 day, vehicle 100 % SALINE

For the molecule shown here, O=C(O)P(=O)(O)O , give the reported ABSOLUTE SEGMENTED NEUTROPHIL.
1104.67 CELLS/uL

* * *

This section presents compounds with their documented MEAN CORPUSCULAR HEMOGLOBIN CONCENTRATION values.
organism: Rattus norvegicus; assay: DrugMatrix - Regimen: Daily Repeat; format: toxicity, organism-based, Sprague-Dawley; set-up: regimen Daily Repeat, gender Male, age 6-8 weeks; conditions: in vivo, iv, 0 mg/kg, 72 h, tissue Blood, dose level Control, time 3 day, vehicle 100 % SALINE
Hi! Could you send only the number? It should be in G/DL, unit omitted.

Check out these entries, answers already filled in.
Compound: O=c1[nH]c(=O)n([C@H]2C[C@H](O)[C@@H](CO)O2)cc1F [FLOXURIDINE]
Endpoint Result: 39.9
--
Compound: O=C(O)P(=O)(O)O [FOSCARNET]
Endpoint Result: 37.23
--
Compound: N=C(N)c1ccc(OCCCCCOc2ccc(C(=N)N)cc2)cc1 [PENTAMIDINE]
Endpoint Result: 37.68
--
Compound: COc1cccc2c1C(=O)c1c(O)c3c(c(O)c1C2=O)C[C@@](O)(C(C)=O)C[C@@H]3O[C@H]1C[C@H](N)[C@H](O)[C@H](C)O1 [DAUNORUBICIN]
Endpoint Result: 39.9

# context switch: different compound, same MEAN CORPUSCULAR HEMOGLOBIN CONCENTRATION
For the compound shown here, C[N+](C)(C)CCOC(=O)CCC(=O)OCC[N+](C)(C)C.[Cl-].[Cl-] [SUCCINYLCHOLINE CHLORIDE] , give the reported MEAN CORPUSCULAR HEMOGLOBIN CONCENTRATION.
37.68

* * *

organism: Rattus norvegicus; experiment: DrugMatrix - Regimen: Daily Repeat; assay type: toxicity, organism-based, Sprague-Dawley; parameters: regimen Daily Repeat, gender Male, age 6-8 weeks; details: in vivo, po, 0 mg/kg, 120 h, tissue Blood, route oral GAVAGE, dose level Control, time 5 day, […]
Quantity Measured: HEMATOCRIT (%)
Hi! Could you send only the number? It should be in %, unit omitted.

Check out these entries, answers already filled in.
Compound: CCc1ccc(CCOc2ccc(CC3SC(=O)NC3=O)cc2)nc1 (configuration not stated) [PIOGLITAZONE]
Endpoint Result: 34.8

Compound: CCCCC(=O)N(Cc1ccc(-c2ccccc2-c2nnn[nH]2)cc1)[C@H](C(=O)O)C(C)C
Endpoint Result: 34.25

Compound: c1ccoc1 [FURAN]
Endpoint Result: 45.15

Compound: CC(=O)Oc1ccccc1C(=O)O [ASPIRIN]
Endpoint Result: 34.67

For the compound shown here, CS(=O)(=O)Nc1ccc([N+](=O)[O-])cc1Oc1ccccc1 [NIMESULIDE] , give the reported HEMATOCRIT.
32.5

For the compound shown here, CC(C)c1c(C(=O)Nc2ccccc2)c(-c2ccccc2)c(-c2ccc(F)cc2)n1CC[C@@H](O)C[C@@H](O)CC(=O)O [ATORVASTATIN] , give the reported HEMATOCRIT.
33.9

For the compound shown here, O=c1c(-c2ccc(O)cc2)coc2cc(O)cc(O)c12 [GENISTEIN] , give the reported HEMATOCRIT.
33.9
